The entries below come with measured remaining activity at 0.03 µM values attached.
Molecular target: PADI4 (Homo sapiens)
Construct: His6; made in house
Sequence (Q9UM07 whole entry): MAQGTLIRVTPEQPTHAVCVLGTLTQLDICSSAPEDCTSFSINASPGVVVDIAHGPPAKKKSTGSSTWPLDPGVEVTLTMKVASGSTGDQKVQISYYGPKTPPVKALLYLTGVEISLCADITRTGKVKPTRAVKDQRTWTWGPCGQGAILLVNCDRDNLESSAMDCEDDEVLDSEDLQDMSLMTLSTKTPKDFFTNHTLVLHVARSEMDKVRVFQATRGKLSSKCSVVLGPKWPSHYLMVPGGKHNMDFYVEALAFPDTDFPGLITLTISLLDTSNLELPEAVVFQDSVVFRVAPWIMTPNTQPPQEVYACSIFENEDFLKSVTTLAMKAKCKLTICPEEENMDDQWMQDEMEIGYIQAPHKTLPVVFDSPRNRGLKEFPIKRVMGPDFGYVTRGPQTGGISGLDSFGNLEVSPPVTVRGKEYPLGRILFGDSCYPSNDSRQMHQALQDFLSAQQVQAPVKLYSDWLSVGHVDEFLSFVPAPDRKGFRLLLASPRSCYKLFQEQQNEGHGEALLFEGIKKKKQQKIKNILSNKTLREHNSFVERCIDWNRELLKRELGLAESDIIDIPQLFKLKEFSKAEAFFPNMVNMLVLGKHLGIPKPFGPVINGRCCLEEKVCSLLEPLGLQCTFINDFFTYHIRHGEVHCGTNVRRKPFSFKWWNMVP
Test: COLDER inhibition assay, BAEE substrate, with or without 1 h preincubation
Format: biochemical
Conditions: peptide 0.03 µM, T=1; read-out: PADI4 activity normalised to 0.1% DMSO
Where a SMILES comes first, the peptide text is derived from it. Bridges are numbered along the chain shown (N, C = ends). [ ]: non-standard residue; d: D form. Orn(fluoroacetimidoyl) = N=C(CF)NCCC[C@H](N)C(=O)O
# output: bare number, implied unit %

Example compounds with recorded remaining activity at 0.03 µM:
[
  {
    "compound": "N=C(N)NCCC[C@@H]1NC(=O)[C@H](CCCNC(=N)CF)NC(=O)[C@H](CC(=O)O)NC(=O)[C@H](Cc2ccc(O)cc2)NC(=O)[C@H](CCCCN)NC(=O)[C@H](CO)NC(=O)[C@@H](Cc2ccc(O)cc2)NC(=O)CSC[C@@H](C(=O)NCC(N)=O)NC(=O)[C@H](CC(=O)O)NC(=O)[C@H](CCCNC(=N)N)NC(=O)[C@@H]2CCCN2C(=O)[C@H](CO)NC1=O [cP4_4, ySKYD(2)RSPRDCG] ({CH2CO}-[dY]SKYD[Orn(fluoroacetimidoyl)]RSPRDCG-NH2; thioether N-12)",
    "remaining activity at 0.03 µM [%]": 73.7
  },
  {
    "compound": "CC(C)C[C@@H]1NC(=O)[C@H](CCCCN)NC(=O)[C@H](CO)NC(=O)[C@H](CO)NC(=O)[C@H](Cc2ccc(O)cc2)NC(=O)[C@H](Cc2c[nH]cn2)NC(=O)[C@H](CCCNC(=N)CF)NC(=O)[C@H](CC(=O)O)NC(=O)[C@H](CC(C)C)NC(=O)[C@@H](Cc2ccc(O)cc2)NC(=O)CSC[C@@H](C(=O)NCC(N)=O)NC(=O)[C@H](Cc2ccc(O)cc2)NC1=O [cP4_15, yLD(2)HYSSKLYCG] ({CH2CO}-[dY]LD[Orn(fluoroacetimidoyl)]HYSSKLYCG-NH2; thioether N-12)",
    "remaining activity at 0.03 µM [%]": 81.5
  },
  {
    "compound": "N=C(N)NCCC[C@@H]1NC(=O)[C@H](Cc2ccc(O)cc2)NC(=O)[C@H](Cc2c[nH]cn2)NC(=O)[C@H](CCCNC(=N)CF)NC(=O)[C@H](CC(=O)O)NC(=O)[C@H](CCCNC(=N)N)NC(=O)[C@@H](Cc2ccc(O)cc2)NC(=O)CSC[C@@H](C(=O)NCC(N)=O)NC(=O)[C@H](Cc2ccc(O)cc2)NC(=O)[C@H](CCCCN)NC(=O)[C@@H]2CCCN2C(=O)[C@H](Cc2c[nH]cn2)NC1=O [PADI4_3_H4(2), yRD(2)HYRHPKYCG] ({CH2CO}-[dY]RD[Orn(fluoroacetimidoyl)]HYRHPKYCG-NH2; thioether N-12)",
    "remaining activity at 0.03 µM [%]": 82.9
  }
]

Could you now consider this next compound?
Prompt line: Quick one: remaining activity at 0.03 µM for N=C(N)NCCC[C@@H]1NC(=O)[C@H](CCCCN)NC(=O)[C@H](CC(N)=O)NC(=O)[C@H](Cc2ccccc2)NC(=O)[C@H](CC(=O)O)NC(=O)[C@H](Cc2c[nH]c3ccccc23)NC(=O)[C@H](CC(N)=O)NC(=O)[C@H](CCCNC(=N)CF)NC(=O)[C@H](Cc2ccc(O)cc2)NC(=O)[C@H](Cc2c[nH]c3ccccc23)NC(=O)[C@@H](Cc2ccc(O)cc2)NC(=O)CSC[C@@H](C(=O)NCC(N)=O)NC1=O [cP4_10, yWY(2)NWDFNKRCG] ({CH2CO}-[dY]WY[Orn(fluoroacetimidoyl)]NWDFNKRCG-NH2; thioether N-12) ?
Response line: 82.2
